Tested on: IGROV-1
experiment_notes: SRB colorimetric assay of cell growth and viability, IGROV-1
Type: cell-based, human
conditions_used: 48 hours exposure
Where a SMILES comes first, the peptide text is derived from it. Bridges are numbered along the chain shown (N, C = ends). [ ]: non-standard residue; d: D form. The star is where a group is joined. d(aIle) = CC[C@H](C)[C@@H](N)C(=O)O; d(aThr) = C[C@@H](O)[C@@H](N)C(=O)O; Hexanoyl(5-Me) = CC(C)CCCC(=O)*; Orn = NCCC[C@H](N)C(=O)O; Dhb = C/C=C(\N)C(=O)O
Measured LC50 (concentration causing 50% net cell killing), listed per entry.
Provide only the numeric value, understood in µM.

| compound | target_desc | value_observed |
| --- | --- | --- |
| C/C=C1\NC(=O)[C@H](Cc2ccccc2)NC(=O)[C@@H](C(C)C)NC(=O)[C@@H]([C@@H](C)CC)NC(=O)[C@H](NC(=O)[C@H](NC(=O)[C@H](CCCN)NC(=O)[C@H]2CCCN2C(=O)[C@H](NC(=O)[C@@H](NC(=O)[C@@H](NC(=O)CNC(=O)CCCC(C)C)[C@@H](C)O)C(C)C)C(C)C)[C@@H](C)CC)[C@@H](C)OC(=O)[C@H](C(C)C)NC1=O [Compound 33, [Gly^13]-KF] | IGROV-1 | 6.96 |

Query: Look up LC50 (concentration causing 50% net cell killing) with IGROV-1 for this compound: C/C=C1\NC(=O)[C@H](Cc2ccccc2)NC(=O)[C@@H](C(C)C)NC(=O)[C@@H]([C@@H](C)CC)NC(=O)[C@H](NC(=O)[C@H](NC(=O)[C@H](CCCN)NC(=O)[C@H]2CCCN2C(=O)[C@H](NC(=O)[C@@H](NC(=O)[C@H](CC(C)C)NC(=O)CCCC(C)C)C(C)C)C(C)C)[C@@H](C)CC)[C@@H](C)OC(=O)[C@H](C(C)C)NC1=O [Compound 54, [Leu^12, noD-Val^13]-KF] ({Hexanoyl(5-Me)}-LV[dV][dP][Orn][d(aIle)][d(aThr)][d(aIle)][dV]F[Dhb]V; ester 7-C)
Response: 3.92

---

System: A-549
experiment_notes: SRB colorimetric assay of cell growth and viability, A-549
Format: cell-based, human
conditions_used: A-549; 48 hours exposure; read-out: LC50 A-549
Where a SMILES comes first, the peptide text is derived from it. Bridges are numbered along the chain shown (N, C = ends). [ ]: non-standard residue; d: D form. The star is where a group is joined. Bip = N[C@@H](Cc1ccc(-c2ccccc2)cc1)C(=O)O; d(aIle) = CC[C@H](C)[C@@H](N)C(=O)O; d(aThr) = C[C@@H](O)[C@@H](N)C(=O)O; Hexanoyl(5-Me) = CC(C)CCCC(=O)*; Phg = N[C@H](C(=O)O)c1ccccc1; Orn = NCCC[C@H](N)C(=O)O; Dhb = C/C=C(\N)C(=O)O
Measured CC50, listed per entry.
Provide only the numeric value, understood in µM.

| compound | measured_endpoint | u | value_observed |
| --- | --- | --- | --- |
| C/C=C1\NC(=O)[C@H](Cc2ccccc2)NC(=O)[C@@H](C(C)C)NC(=O)[C@@H]([C@@H](C)CC)NC(=O)[C@H](NC(=O)[C@H](NC(=O)[C@H](CCCNC(=O)CCCC[C@@H]2SC[C@@H]3NC(=O)N[C@@H]32)NC(=O)[C@H]2CCCN2C(=O)[C@H](NC(=O)[C@@H](NC(=O)[C@@H](NC(=O)[C@H](NC(=O)CCCC(C)C)C(C)C)[C@@H](C)O)C(C)C)C(C)C)[C@@H](C)CC)[C@@H](C)OC(=O)[C@H](C(C)C)NC1=O [Compound 99, [Orn(Biot)^8]-Kahalalide F] | CC50 | µM | 4.76 |
| C/C=C1\NC(=O)[C@H](Cc2ccc(-c3ccccc3)cc2)NC(=O)[C@@H](C(C)C)NC(=O)[C@@H]([C@@H](C)CC)NC(=O)[C@H](NC(=O)[C@H](NC(=O)[C@H](CCCN)NC(=O)[C@H]2CCCN2C(=O)[C@H](NC(=O)[C@@H](NC(=O)[C@@H](NC(=O)[C@H](NC(=O)CCCC(C)C)C(C)C)[C@@H](C)O)C(C)C)C(C)C)[C@@H](C)CC)[C@@H](C)OC(=O)[C@H](C(C)C)NC1=O [Compound 86, [Bip^3]-KF] ({Hexanoyl(5-Me)}-[dV]TV[dV][dP][Orn][d(aIle)][d(aThr)][d(aIle)][dV][Bip][Dhb]V; ester 8-C) | CC50 | µM | 0.81 |
| [2H]C([2H])([2H])C([2H])(C([2H])([2H])[2H])[C@]([2H])(NC(=O)[C@@H](NC(=O)[C@H](NC(=O)CCCC(C)C)C(C)C)[C@@H](C)O)C(=O)N[C@@H](C(=O)N1CCC[C@@H]1C(=O)N[C@@H](CCCN)C(=O)N[C@@H](C(=O)N[C@H]1C(=O)N[C@H]([C@@H](C)CC)C(=O)N[C@H](C(C)C)C(=O)N[C@@H](Cc2ccccc2)C(=O)N/C(=C\C)C(=O)N[C@@H](C(C)C)C(=O)O[C@@H]1C)[C@@H](C)CC)C(C)C [Compound 100, [L-Val-d8^11]-KF] | CC50 | µM | 1.88 |
| C/C=C1\NC(=O)[C@H](Cc2ccccc2)NC(=O)[C@@H](C(C)C)NC(=O)[C@@H]([C@@H](C)CC)NC(=O)[C@H](NC(=O)[C@H](NC(=O)[C@H](CCCN)NC(=O)[C@H]2CCCN2C(=O)[C@H](NC(=O)[C@@H](NC(=O)CNC(=O)[C@H](NC(=O)CCCC(C)C)C(C)C)C(C)C)C(C)C)[C@@H](C)CC)[C@@H](C)OC(=O)[C@H](C(C)C)NC1=O [Compound 111, [Gly^12]-KF] ({Hexanoyl(5-Me)}-[dV]GV[dV][dP][Orn][d(aIle)][d(aThr)][d(aIle)][dV]F[Dhb]V; ester 8-C) | CC50 | µM | 6.16 |
| C/C=C1\NC(=O)[C@H](c2ccccc2)NC(=O)[C@@H](C(C)C)NC(=O)[C@@H]([C@@H](C)CC)NC(=O)[C@H](NC(=O)[C@H](NC(=O)[C@H](CCCN)NC(=O)[C@H]2CCCN2C(=O)[C@H](NC(=O)[C@@H](NC(=O)[C@@H](NC(=O)[C@H](NC(=O)CCCC(C)C)C(C)C)[C@@H](C)O)C(C)C)C(C)C)[C@@H](C)CC)[C@@H](C)OC(=O)[C@H](C(C)C)NC1=O [Compound 87, [Phg^3]-KF] ({Hexanoyl(5-Me)}-[dV]TV[dV][dP][Orn][d(aIle)][d(aThr)][d(aIle)][dV][Phg][Dhb]V; ester 8-C) | CC50 | µM | 1.9 |

Query: Given C/C=C1\NC(=O)[C@H](Cc2ccccc2)NC(=O)[C@@H](C(C)C)NC(=O)[C@@H]([C@@H](C)CC)NC(=O)[C@H](NC(=O)[C@H](NC(=O)[C@H](CCCN)NC(=O)[C@H]2CCCCN2C(=O)[C@H](NC(=O)[C@@H](NC(=O)[C@@H](NC(=O)[C@H](NC(=O)CC[C@@H](C)CC)C(C)C)[C@@H](C)O)C(C)C)C(C)C)[C@@H](C)CC)[C@@H](C)OC(=O)[C@H](C(C)C)NC1=O [Compound 60, [D-Pip^9, (4S)-MeHex^14]-KF] , state its recorded CC50.
Response: 6.7

Query: Then C/C=C1\NC(=O)[C@H](Cc2ccccc2)NC(=O)[C@@H](C(C)C)NC(=O)[C@@H]([C@@H](C)CC)NC(=O)[C@H](NC(=O)[C@H](NC(=O)[C@H](CCCN)NC(=O)[C@H]2CCCN2C(=O)[C@H](NC(=O)[C@@H](NC(=O)[C@@H]2CCCN2C(=O)[C@H](NC(=O)CCCC(C)C)C(C)C)C(C)C)C(C)C)[C@@H](C)CC)[C@@H](C)OC(=O)[C@H](C(C)C)NC1=O [Compound 117, [Pro^12]-KF] ({Hexanoyl(5-Me)}-[dV]PV[dV][dP][Orn][d(aIle)][d(aThr)][d(aIle)][dV]F[Dhb]V; ester 8-C) ?
Response: 6.78

Query: Then C/C=C1\NC(=O)[C@H](Cc2ccc(Cl)cc2)NC(=O)[C@@H](C(C)C)NC(=O)[C@@H]([C@@H](C)CC)NC(=O)[C@H](NC(=O)[C@H](NC(=O)[C@H](CCCN)NC(=O)[C@H]2CCCN2C(=O)[C@H](NC(=O)[C@@H](NC(=O)[C@@H](NC(=O)[C@H](NC(=O)CCCC(C)C)C(C)C)[C@@H](C)O)C(C)C)C(C)C)[C@@H](C)CC)[C@@H](C)OC(=O)[C@H](C(C)C)NC1=O [Compound 83, [Phe(4-Cl)^3]-KF] ?
Response: 0.593

Query: Then C/C=C1\NC(=O)[C@H](Cc2ccccc2)NC(=O)[C@@H](C(C)C)NC(=O)[C@@H]([C@@H](C)CC)NC(=O)[C@H](NC(=O)[C@H](NC(=O)[C@H](CCCN)NC(=O)[C@H]2CCCN2C(=O)[C@H](NC(=O)[C@@H](NC(=O)[C@@H](NC(=O)[C@@H](CCCN)NC(=O)CCCC(C)C)[C@@H](C)O)C(C)C)C(C)C)[C@@H](C)CC)[C@@H](C)OC(=O)[C@H](C(C)C)NC1=O [Compound 118, [D-Orn^13]-KF] ?
Response: 6.7
